- target.or.system: hERG (KCNH2) (Homo sapiens)
- Sequence (Q12809 whole entry): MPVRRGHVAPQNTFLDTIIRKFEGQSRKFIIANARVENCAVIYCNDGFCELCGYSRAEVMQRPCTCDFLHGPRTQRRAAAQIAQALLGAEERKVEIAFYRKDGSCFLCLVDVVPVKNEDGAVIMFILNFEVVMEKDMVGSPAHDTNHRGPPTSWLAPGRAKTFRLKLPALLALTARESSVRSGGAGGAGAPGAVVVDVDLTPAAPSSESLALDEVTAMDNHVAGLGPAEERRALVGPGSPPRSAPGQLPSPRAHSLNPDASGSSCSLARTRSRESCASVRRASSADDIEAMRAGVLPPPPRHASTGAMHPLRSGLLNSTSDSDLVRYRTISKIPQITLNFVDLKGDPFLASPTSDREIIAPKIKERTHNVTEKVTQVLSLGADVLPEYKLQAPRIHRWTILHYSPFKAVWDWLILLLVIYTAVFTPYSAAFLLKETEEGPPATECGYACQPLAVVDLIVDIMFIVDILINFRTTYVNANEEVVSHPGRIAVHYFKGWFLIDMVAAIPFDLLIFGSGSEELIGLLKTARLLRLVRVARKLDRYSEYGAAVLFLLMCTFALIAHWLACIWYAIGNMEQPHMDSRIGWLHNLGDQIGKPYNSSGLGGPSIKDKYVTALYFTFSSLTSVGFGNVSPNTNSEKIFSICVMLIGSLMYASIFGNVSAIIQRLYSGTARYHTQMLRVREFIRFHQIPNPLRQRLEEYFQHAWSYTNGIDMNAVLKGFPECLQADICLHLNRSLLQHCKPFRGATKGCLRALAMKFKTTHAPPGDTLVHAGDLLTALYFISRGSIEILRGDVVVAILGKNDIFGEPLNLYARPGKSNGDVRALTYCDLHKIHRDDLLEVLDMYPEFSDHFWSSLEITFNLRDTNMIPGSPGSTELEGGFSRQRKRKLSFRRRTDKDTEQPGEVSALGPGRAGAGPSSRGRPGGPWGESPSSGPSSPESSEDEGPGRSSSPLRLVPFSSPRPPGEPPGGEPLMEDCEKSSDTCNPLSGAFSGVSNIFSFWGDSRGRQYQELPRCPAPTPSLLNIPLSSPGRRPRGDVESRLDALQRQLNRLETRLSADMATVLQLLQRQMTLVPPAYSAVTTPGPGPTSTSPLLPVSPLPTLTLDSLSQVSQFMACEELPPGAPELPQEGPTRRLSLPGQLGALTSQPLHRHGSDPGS
- procedure.details: Inhibition of human ERG expressed in HEK293 cells at 1 uM by automated patch clamp method relative to control
- Format: cell-based
- condition.set: HEK293 cells that express hERG
Give Yes when the value for inhibition at 1 µM is at least 10%. Give No when it is less.

[[record]]
molecule = "CC(=O)O[C@@H]1[C@@H](OC(C)=O)C(C)(C)/C=C/[C@H](C)[C@H](OC(C)=O)[C@@]2(O)C[C@H](C)[C@H](OC(=O)c3ccccc3)[C@@H]2/C=C(\\C)[C@@H]1OC(C)=O"
assigned_class = "Yes"

[[record]]
molecule = "CC(=O)O[C@@H]1C[C@@H](OC(C)=O)C(C)(C)/C=C/[C@H](C)[C@H](OC(C)=O)[C@@]2(O)C[C@H](C)[C@H](OC(=O)c3ccccc3)[C@@H]2/C=C/1C [EUPHORNIN]"
assigned_class = "No"

[[record]]
molecule = "C/C=C(\\C)C(=O)O[C@H]1/C(C)=C/[C@H]2[C@@H](OC(=O)c3ccccc3)[C@@H](C)C[C@]2(O)[C@@H](OC(C)=O)[C@@H](C)/C=C/C(C)(C)[C@H](OC(C)=O)[C@H]1OC(C)=O"
assigned_class = "No"

[[record]]
molecule = "C/C=C(\\C)C(=O)O[C@@H]1C[C@@H](OC(C)=O)C(C)(C)/C=C/[C@H](C)[C@H](OC(C)=O)[C@@]2(O)C[C@H](C)[C@H](OC(=O)c3ccccc3)[C@@H]2/C=C/1C"
assigned_class = "Yes"

[[record]]
molecule = "C/C=C(/C)C(=O)OCC1(C)[C@H]2[C@@H]3C=C(C)[C@@H](O)[C@]4(O)[C@@H](OC(=O)/C(C)=C\\C)C(C)=C[C@]4(C3=O)[C@H](C)C[C@H]21 (some centres not stated)"
assigned_class = "Yes"

[[record]]
molecule = "C/C=C(/C)C(=O)O[C@H]1C(C)=C[C@@]23C(=O)[C@@H](C=C(C)[C@@H](O)[C@]12O)[C@H]1[C@@H](C[C@H]3C)C1(C)C"
assigned_class = "No"

[[record]]
molecule = "CC(=O)O[C@@H]1[C@@H](OC(C)=O)C(C)(C)/C=C/[C@H](C)[C@H](O)[C@@]2(OC(C)=O)C[C@H](C)[C@H](OC(=O)c3ccccc3)[C@@H]2/C=C(\\C)[C@@H]1OC(C)=O"
assigned_class = "Yes"

